- Test system: MS2 coat protein
- assay_summary: apparent KD of MS2 coat protein; designed switch direction (-1 OFF switch, 1 ON switch): 1; higher = weaker reporter binding
- particulars: Eterna round: R95; input ligand: microRNA oligo, concentration not stated
sequences and their reported apparent KD of MS2 coat protein
A number alone suffices; assume nM.

Look over these answered cases.
sequence_data="GGUCCGGCCUGAGCUGGACCGAAGCAUGUACAUGAGGAUCACCCAUGUCAUGUACAGGCUUUUUGCUCGUCUUGUUG [JL-shm-2.14 JL Mod] (puzzle: Sensor for hsa-mir-208a)" result_type="apparent KD of MS2 coat protein" quantitative_readout=17.2
sequence_data="GUAUCUACAGGUUGCGAUGCUCGUCUGAUACAUGAGGAUCACCCAUGUUAUAGCCCUGUGCUUGCGCAGGGCUGAUU [Sensor for hsa-mir-208a ( MOD of Tearor v.2 )] (puzzle: Sensor for hsa-mir-208a)" result_type="apparent KD of MS2 coat protein" quantitative_readout=33.4

Now take the following sequence into account.
For record AGAGAACAUGAGGAUCACCCAUGUAGGAUGGGCAUAGGAUAUAGAAGGAUGAAGGAGAAACUAGAAGGAUGAUGGA [JR_SS1_Sub076] (puzzle: Same State 1) the listed apparent KD of MS2 coat protein is 145
